assay: basal S. cerevisiae growth modulation, no modifier, primary screen, OD600, strain BY4716, 24 h, basal condition (AID 1173); conditions: OD600, 24 h, higher = more signal, called active from +8 up or from −8 down
// label = y if z-score is not less than -0.9, otherwise n

See these solved cases before continuing.
[
  {
    "compound": "CCOC(=O)C1=CCC(c2ccncc2)N(S(=O)(=O)c2ccc(C)cc2)C1 (centres undefined)",
    "cat": "y"
  },
  {
    "compound": "COCCOC(=O)N1C(=O)[C@@]2(c3cc(C#CCNC(N)=O)ccc31)[C@H](c1ccc(O)cc1)N1[C@H](c3ccccc3)[C@H](c3ccccc3)OC(=O)[C@H]1[C@@H]2C(=O)N1CCc2cc(OC)c(OC)cc2C1",
    "cat": "y"
  },
  {
    "compound": "CN1C(=O)C2C=CC(C(O)c3ccc([N+](=O)[O-])cc3)N(Nc3ccccc3)C2C1=O (centres undefined)",
    "cat": "n"
  }
]

Decide: z-score of C=CC[C@]1(C(=O)NCC(O)CO)N=C(c2ccc(OCCCO)cc2)O[C@H]1c1ccccc1CN=[N+]=[N-] (some centres undefined) >= -0.9?
y

Say whether Cc1ccc(S[C@]2(C(=O)NC3CC3)CC(=O)N(C3Cc4ccccc4C3)[C@@H]2c2ccc(CO)cc2I)cc1 shows z-score of -0.9 or more.
n

Assess whether reported z-score for C=CCOC(=O)[C@@H]1[C@H]2C(=O)O[C@H](c3ccccc3)[C@H](c3ccccc3)N2[C@H](c2ccc(OCCOC(=O)[C@@H]3C[C@@H]4C(=O)N[C@@H](CC(C)C)C(=O)N4[C@@H]3c3ccc(O)cc3)cc2)[C@@]12C(=O)Nc1ccc(I)cc12 sits at -0.9 or higher.
y

Does z-score meet or surpass -0.9 for C=C(/C=C\CNS(=O)(=O)c1ccc(C)cc1)[C@H](O)[C@H]1CCCN1S(=O)(=O)c1ccccc1[N+](=O)[O-] ?
y

Assess whether reported z-score for O=C1O[C@@H](c2ccccc2)[C@@H](c2ccccc2)N2[C@@H](c3ccccc3OCCO)[C@]3(C(=O)Nc4ccc(C#CC5(O)CCCCCC5)cc43)[C@@H](C(=O)N3CCCCCCC3)[C@H]12 sits at -0.9 or higher.
y

Exam item: decide whether the reported z-score for O=C1N(Cc2ccccc2)Cc2ccccc2C[C@@]12COC(c1ccc(OCCCO)cc1)=N2 is at least -0.9.
y

Could you tell me if the measured z-score of O=C(NCC(F)(F)F)[C@@H]1c2ccccc2C(=O)N(Cc2cc(C(F)(F)F)cc(C(F)(F)F)c2)[C@H]1c1ccc(CO)cc1 reaches -0.9 or more?
y

Textbook exercise: given the entry CC[C@@H](O[Si](C#C[Si](C(C)C)(C(C)C)C(C)C)(C(C)C)C(C)C)c1cn(Cc2cccc(Cl)c2)nn1 , state whether its z-score is greater than or equal to -0.9.
y

Determine whether measured z-score meets or exceeds -0.9 for COC(=O)C1=CC(c2ccc(CO)cc2)=CC(C2CC2)N(Cc2cc3c(cc2Br)OCO3)C=C1C(=O)OC (centres undefined)
n

Given [N-]=[N+]=NCc1ccccc1[C@H]1OC(c2ccc(OCCCO)cc2)=N[C@@]1(CCS(=O)(=O)c1ccccc1)C(=O)NCCN1CCOCC1 , state whether its z-score is at least -0.9.
y

----------
In this section, each of the molecules is paired with its reported composite z-score.
target: Dickkopf-related protein 1 (Homo sapiens) (UniProt O94907); assay: DKK1 binders on small-molecule microarrays, primary screen, biochemical, small-molecule microarray, 635 nm fluorescence scan (AID 1106); details: DKK1 binding, higher = more signal;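 also: score merges emission near 667 nm with signal to noise over three replicate slides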
Sequence (O94907 whole entry, looked up): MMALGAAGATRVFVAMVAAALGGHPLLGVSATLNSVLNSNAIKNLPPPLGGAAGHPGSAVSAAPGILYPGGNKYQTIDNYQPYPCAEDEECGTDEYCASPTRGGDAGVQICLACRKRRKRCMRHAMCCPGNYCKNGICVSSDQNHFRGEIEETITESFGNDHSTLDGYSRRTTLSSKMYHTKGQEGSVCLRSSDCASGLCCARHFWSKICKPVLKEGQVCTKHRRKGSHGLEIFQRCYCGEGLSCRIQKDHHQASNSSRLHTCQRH
Answer as a number with no unit attached.

[
  {
    "molecule": "COc1ccc([Si](C)(C)[C@H]2[C@H](CC(=O)N3CCC[C@H]3CO)O[C@@]3(C(=O)N(C)c4ccccc43)[C@@H]2C)cc1",
    "composite z-score": 0.588
  }
]

Turning now to a further molecule:
Recorded composite z-score for CCCCCN1CC=CC23O[C@@H]4/C=C\CCCOC(=O)C4[C@H]2C(=O)N(CCCCCO)[C@@H]3C1=O (some centres not stated) , please?
-0.833

----------
molecular target: Torsin-1A-interacting protein 2 (Homo sapiens) (UniProt Q8NFQ8); assay: LULL1 binders on small-molecule microarray, primary screen, cell lysate, human LULL1 lysate, 635/667 nm fluorescence (AID 1092); conditions: hLULL1 lysate binding, 635 nm fluorescence, higher = more signal;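 also: probe is lysate of COS7 cells overexpressing human LULL1; score merges per-feature 667 nm fluorescence with signal-to-noise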
Sequence (Q8NFQ8 whole entry, looked up): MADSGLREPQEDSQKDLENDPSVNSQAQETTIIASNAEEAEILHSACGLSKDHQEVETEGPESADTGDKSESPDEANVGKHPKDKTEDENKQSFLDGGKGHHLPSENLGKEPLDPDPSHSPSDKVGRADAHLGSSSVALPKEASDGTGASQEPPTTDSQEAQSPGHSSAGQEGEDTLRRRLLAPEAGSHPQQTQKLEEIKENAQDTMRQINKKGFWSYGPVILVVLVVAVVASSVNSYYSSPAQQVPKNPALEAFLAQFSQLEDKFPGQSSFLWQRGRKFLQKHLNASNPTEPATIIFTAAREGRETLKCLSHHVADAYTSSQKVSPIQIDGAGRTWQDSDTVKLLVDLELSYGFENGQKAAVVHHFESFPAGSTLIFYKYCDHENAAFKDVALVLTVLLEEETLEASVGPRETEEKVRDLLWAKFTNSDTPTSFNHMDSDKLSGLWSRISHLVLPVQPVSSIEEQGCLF
Output met for composite z-score not less than 3; output not met otherwise.

Solved entries:
[
  {
    "molecule": "C=C(C(=O)CC[C@@H](OC(=O)c1cccnc1)c1cccc(OCCO)c1)C(C)C",
    "cat": "not met"
  },
  {
    "molecule": "O=C1NC(=O)C2C1C=CC(C(O)C1CCCCC1)N2Nc1ccccn1 (stereo unspecified)",
    "cat": "not met"
  },
  {
    "molecule": "COC(=O)[C@@]1(Cc2ccc(F)cc2)[C@H]2c3cc(C(=O)N(C)C)n(Cc4ccc(C(F)(F)F)nc4)c3C[C@H]2CN1C(=O)c1ccccc1",
    "cat": "met"
  },
  {
    "molecule": "C=CC[C@]1(C(=O)NCC(O)CO)N=C(c2ccc(OCCCO)cc2)O[C@H]1c1ccccc1CN=[N+]=[N-] (stereo partly specified)",
    "cat": "met"
  },
  {
    "molecule": "COc1cc(CO)cc(I)c1O[C@H]1C=C(C(=O)NCCO)C[C@@H](N(CCN2CCOCC2)C(=O)C2CCCO2)[C@@H]1O (stereo partly specified)",
    "cat": "not met"
  },
  {
    "molecule": "COC(=O)Cn1c(C(=O)N(C)C)cc2c1C[C@H]1CN(C(=O)c3ccccc3)[C@@](Cc3ccccc3)(C(=O)OC)[C@@H]21",
    "cat": "not met"
  },
  {
    "molecule": "CC[C@@H]1C=C(C(=O)O)[C@H](c2cccc(Cl)c2)N1S(=O)(=O)c1ccc(C)cc1",
    "cat": "met"
  },
  {
    "molecule": "COc1ccc([Si](C)(C)[C@H]2[C@H](CC(=O)N(CCO)Cc3ccccc3)O[C@@]3(C(=O)N(c4ccccc4)c4ccccc43)[C@@H]2C)cc1",
    "cat": "not met"
  },
  {
    "molecule": "[N-]=[N+]=NCc1ccccc1C[C@@]1(C(N)=O)N=C(c2ccc(OCCCO)cc2)O[C@@H]1c1ccccc1N=[N+]=[N-]",
    "cat": "met"
  },
  {
    "molecule": "Cc1ccc(S[C@]2(C(=O)NC(C)C)CC(=O)N(Cc3ccccc3)[C@@H]2c2ccc(CO)cc2)cc1",
    "cat": "not met"
  }
]

Check if composite z-score >= 3 (inclusive). Item: CC(C)(C)OC(=O)CC[C@@]1(C(=O)N2CCOCC2)N=C(c2ccc(OCCCO)cc2)O[C@@H]1c1ccccc1CN=[N+]=[N-]
met

Is the recorded value of composite z-score equal to or greater than 3 for this molecule? COC(=O)[C@@]1(Cc2ccc(F)cc2)[C@@H]2C(=CC(=O)[C@H]2CC(=O)C(=O)N2CCCC2)CN1C(=O)c1ccccc1
met

// inclusive: composite z-score at least 3? input: COc1c(C)cc(-c2nc(-c3ccccc3)c3c(c2C)CO[Si]3(C(C)C)C(C)C)cc1C
not met

----------
Reported composite z-score by item:
assay: binders of probe aFSTL3 on microarray, primary screen, stem cell growth factor project, biochemical, small-molecule microarray, fluorescence 635/667 (AID 1064); settings: higher = more signal;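 also: measures binding of the biotinylated anti-FSTL3 antibody to printed compounds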
Simply state the number, no unit and no words.

[
  {
    "compound": "COC(=O)Cn1c(C(=O)N(C)C)cc2c1C[C@H]1CN(C(=O)c3ccccc3)[C@@](Cc3ccccc3)(C(=O)OC)[C@@H]21",
    "readout_type": "composite z-score",
    "reading": -0.215
  },
  {
    "compound": "COc1cc(CO)cc(I)c1O[C@H]1C=C(C(=O)NCCO)C[C@@H](N(CCN2CCOCC2)C(=O)C2CCCO2)[C@@H]1O (stereo not given in full)",
    "readout_type": "composite z-score",
    "reading": -0.351
  },
  {
    "compound": "CO[C@H]1O[C@H](CO)[C@@H](OC(=O)Nc2cccc(F)c2)[C@H](OC(=O)Nc2ccc3c(c2)OCO3)[C@@H]1OC(=O)Nc1ccc2c(c1)OCO2",
    "readout_type": "composite z-score",
    "reading": -0.0407
  },
  {
    "compound": "CCCCN1CC=CC23O[C@@H]4C=CCCOC(=O)C4[C@H]2C(=O)N(CCO)[C@@H]3C1=O (stereo not given in full)",
    "readout_type": "composite z-score",
    "reading": 0.18
  },
  {
    "compound": "O=C1c2ccccc2[C@@]2(Cc3ccccc3N(CC(F)(F)F)C2=O)[C@H](c2ccc(CO)cc2)N1Cc1ccccc1",
    "readout_type": "composite z-score",
    "reading": 0.386
  }
]

For CS(=O)(=O)CCOC(=O)C1=CC(CCCO)=CC(C2CC2)N(Cc2sc3ccccc3c2Cl)C=C1C(=O)OCCS(C)(=O)=O (stereo not given) , what is its reported composite z-score?
-0.143

GET /values?readout=composite z-score&item= CC(C)(C)OC(=O)CC[C@]1(C(N)=O)N=C(c2ccc(OCCCO)cc2)O[C@H]1c1ccccc1N=[N+]=[N-]
0.365

Reported composite z-score, compound CC(C)C(=C=CC[C@H](O)c1cccc(OCCO)c1)C[C@H](O)c1ccccn1 : ____
-0.242

Which measured composite z-score value corresponds to CC(CO)N1C(=O)[C@@H]2[C@H]3C(=O)OCC=C[C@H]3OC23C=CCN(c2ccc4ccccc4c2)C(=O)[C@@H]13 (stereo not given in full) ?
0.865

For the compound O=C(NC1CC1)[C@@H]1c2ccccc2C(=O)N(C2CCCCC2)[C@H]1c1ccc(CO)cc1 , what composite z-score is on record?
0.954

Sample CC[C@@H](O[Si](C#C[Si](C(C)C)(C(C)C)C(C)C)(C(C)C)C(C)C)c1cn([C@H](CO)Cc2ccccc2)nn1 — what was its composite z-score?
-0.48
